Give percentage of IFNG+ NK cells for every item shown.
test system: NKG2A−/NKG2C− NK cells; test: NK cell activation markers in control NKG2A-/NKG2C- NK cells incubated with peptide and K562 expressing HLA-E; type: cell-based, human; conditions: Trial 3
Where no end group is shown, it is not given here.
Give bare numbers, in %.

Field: example entries. Status: answers known.
RMPPRSVLL [human12]	36.2
TLPKRGLFL [human2, TLPKRGLFL]	37.4
FLPNRSLLF [human8, peptide SLC52A3 354-362 derived from the human proteome]	38

Working through the 5 sequences below one at a time, give percentage of IFNG+ NK cells for each.
1. VMPPRTLLL [human15, peptide HLA-A 3-11 derived from the human proteome]
2. ILTDRSLWL [human4, peptide FBXO41 670-678 derived from the human proteome]
3. VMAPQSLLL [VMAPQSLLL (PQS), negative control peptide, reference compound]
4. VMAPRTLIL [VMAPRTLIL (LIL), positive control peptide, reference compound]
5. VMPGRTLCF [human11, peptide TACR3 226-234 derived from the human proteome]

Response given:
1. 34.7
2. 33.7
3. 48.3
4. 36.7
5. 33.5

What the record says about NMPARTVLF [human14, peptide MTREX 490-498 derived from the human proteome] : percentage of IFNG+ NK cells is 36.5

###

system: NKG2A−/NKG2C+ NK cells; assay: NK cell activation markers in NKG2A-/NKG2C+ NK cells incubated with peptide and K562 expressing HLA-E (activation); assay type: cell-based, human; details: NKG2A-/NKG2C+ NK cells, K562/HLA-E, Trial 6
Where no end group is shown, it is not given here.
reported metric: percentage of TNF+ NK cells (%)
Numbers only, in %.

VMPGRTLCF [human11, peptide TACR3 226-234 derived from the human proteome]	33.5

Report percentage of TNF+ NK cells for every entry below.
1. FLPNRSLLF [human8, peptide SLC52A3 354-362 derived from the human proteome]
2. TGPWRSLWI [human3, TGPWRSLWI]
3. TLPERTLYL [human7, peptide ECEL1 269-277 derived from the human proteome]
4. NMPARTVLF [human14, peptide MTREX 490-498 derived from the human proteome]
5. QMPSRSLLF [human1, QMPSRSLLF]
6. TLPKRGLFL [human2, TLPKRGLFL]

Response given:
[31.7, 15.8, 37.8, 21.8, 38.8, 41.1]

For each of the sequences below, note its percentage of TNF+ NK cells.
1. TAPARTMFL [human13, TAPARTMFL]
2. VMAPQSLLL [VMAPQSLLL (PQS), negative control peptide, reference compound]

Response given:
1: 8.92; 2: 5.08

For every listed record, write down its percentage of TNF+ NK cells.
1. VLPHRTQFL [CMV1, novel CMV-derived peptide UL120 72-80, Merlin]
2. VNPGRSLFL [human5, VNPGRSLFL]
3. VMPPRTLLL [human15, peptide HLA-A 3-11 derived from the human proteome]
4. ILTDRSLWL [human4, peptide FBXO41 670-678 derived from the human proteome]

Response given:
33.3
15
36.3
43

For VMAPRTLIL [VMAPRTLIL (LIL), positive control peptide, reference compound] the sequence record lists percentage of TNF+ NK cells as 35.5

###

I'd appreciate it if you could supply Binding of peptide-HLA-E complexes to CD94/NKG2A normalized to a theoretical Rmax values for the items below.
biological target: CD94/NKG2A (Homo sapiens, UniProt P26715+Q13241); assay: Steady-state surface plasmon resonance of peptide-HLA-E complex with CD94/NKG2A; format: binding; settings: steady-state SPR; CD94/NKG2A analyte concentration 0.800 μM
Sequence (P26715 94-233 limits assumed): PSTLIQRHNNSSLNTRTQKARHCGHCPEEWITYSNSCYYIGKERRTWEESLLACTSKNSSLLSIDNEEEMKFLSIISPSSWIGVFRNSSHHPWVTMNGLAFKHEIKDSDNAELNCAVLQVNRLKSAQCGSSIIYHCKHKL
Sequence (Q13241 32-179 limits assumed): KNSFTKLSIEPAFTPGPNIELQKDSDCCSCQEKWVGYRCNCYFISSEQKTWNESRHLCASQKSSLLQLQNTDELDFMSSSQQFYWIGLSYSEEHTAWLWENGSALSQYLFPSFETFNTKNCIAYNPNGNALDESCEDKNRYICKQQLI
Where no end group is shown, it is not given here.
One number for each entry.

Below: 3 sequences and their reported Binding of peptide-HLA-E complexes to CD94/NKG2A normalized to a theoretical Rmax.
TLPKRGLFL [human2, TLPKRGLFL]	0.131
QMPSRSLLF [human1, QMPSRSLLF]	0.160
VNPGRSLFL [human5, VNPGRSLFL]	0.247

Dear colleague, could you please provide Binding of peptide-HLA-E complexes to CD94/NKG2A normalized to a theoretical Rmax for the sequences listed below?
1. TGPWRSLWI [human3, TGPWRSLWI]
2. TAPARTMFL [human13, TAPARTMFL]

Response given:
[0.015, 0.074]

###

biological target: CD94/NKG2C (Homo sapiens, UniProt P26717+Q13241); experiment: Steady-state surface plasmon resonance of peptide-HLA-E complex with CD94/NKG2C; type: binding; details: CD94/NKG2C concentration 25.6 μM
Sequence (P26717 94-231 limits assumed): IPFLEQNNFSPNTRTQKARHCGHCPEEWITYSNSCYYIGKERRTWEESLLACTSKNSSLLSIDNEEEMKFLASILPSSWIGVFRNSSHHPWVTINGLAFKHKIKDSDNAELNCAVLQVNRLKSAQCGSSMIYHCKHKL
Sequence (Q13241 32-179 limits assumed): as the sequence (Q13241 32-179 limits assumed) above
Where no end group is shown, it is not given here.
Kindly supply the reported binding of peptide-HLA-E complex to CD94/NKG2C normalized to a fitted Rmax values for the records listed here.

As a guide, the following entries are already answered.
TGPWRSLWI [human3, TGPWRSLWI]	0.219
TLPKRGLFL [human2, TLPKRGLFL]	0.621
TAPARTMFL [human13, TAPARTMFL]	0.613
VNPGRSLFL [human5, VNPGRSLFL]	0.971

Read the next record carefully.
Measured on CD94/NKG2C (Homo sapiens, UniProt P26717+Q13241), QMPSRSLLF [human1, QMPSRSLLF] has a documented binding of peptide-HLA-E complex to CD94/NKG2C normalized to a fitted Rmax of 0.723

###

target: CD94/NKG2A (Homo sapiens, UniProt P26715+Q13241); experiment: Steady-state surface plasmon resonance of peptide-HLA-E complex with CD94/NKG2A; format: binding; conditions: CD94/NKG2A concentration 25.6 μM
Where no end group is shown, it is not given here.
Please enter YES where binding of peptide-HLA-E complex to CD94/NKG2A normalized to a fitted Rmax is greater than or equal to 0.9, and NO where it is lower.

Take a look at these entries with their results.
TGPWRSLWI [human3, TGPWRSLWI]	NO
TLPKRGLFL [human2, TLPKRGLFL]	NO
TAPARTMFL [human13, TAPARTMFL]	NO

Consider now this further sequence.
Challenge: Please indicate if the recorded binding of peptide-HLA-E complex to CD94/NKG2A normalized to a fitted Rmax for VNPGRSLFL [human5, VNPGRSLFL] meets or exceeds 0.9.
Response given: YES

###

System: NKG2A−/NKG2C− NK cells
Test: NK cell activation markers in control NKG2A-/NKG2C- NK cells incubated with peptide and K562 expressing HLA-E
Format: cell-based, human
Details: Trial 4
Method: A human immortalized myelogenous leukemia cell line (K562), which expresses HLA-E was incubated with novel peptides (Table 1) derived from the human proteome or human cytomegalovirus proteome. […] Controls assessments were also performed using NKG2A−/NKG2C− cells (Tables 10-13). Inhibition was indicated by a decrease in percent cells positive for cell surface markers, while activation was indicated by an increase in percent cells positive for cell surface markers.
Where no end group is shown, it is not given here.
reported metric: percentage CCL3+ NK cells (%)
Numbers only, in %.

Consider the following illustrative entries.
TLPERTLYL [human7, peptide ECEL1 269-277 derived from the human proteome]	27.4
FLPNRSLLF [human8, peptide SLC52A3 354-362 derived from the human proteome]	32
ILTDRSLWL [human4, peptide FBXO41 670-678 derived from the human proteome]	35.9
NMPARTVLF [human14, peptide MTREX 490-498 derived from the human proteome]	29.2
VMAPQSLLL [VMAPQSLLL (PQS), negative control peptide, reference compound]	35
QMPSRSLLF [human1, QMPSRSLLF]	33.1
VMPPRTLLL [human15, peptide HLA-A 3-11 derived from the human proteome]	34.3

Consider the record given below.
Lab book: percentage CCL3+ NK cells of VMAPRTLIL [VMAPRTLIL (LIL), positive control peptide, reference compound] noted as 30.8

###

target: CD94/NKG2A (Homo sapiens, UniProt P26715+Q13241); test: Steady-state surface plasmon resonance of peptide-HLA-E complex with CD94/NKG2A; assay type: binding; settings: CD94/NKG2A concentration 0.1 μM
Where no end group is shown, it is not given here.
Kindly supply the reported binding of peptide-HLA-E complex to CD94/NKG2A normalized to a fitted Rmax values for the records listed here.
Numbers only.

# example entries with known answers
TLPKRGLFL [human2, TLPKRGLFL]	0.023
TGPWRSLWI [human3, TGPWRSLWI]	0.015

Report binding of peptide-HLA-E complex to CD94/NKG2A normalized to a fitted Rmax for each item below.
1. TAPARTMFL [human13, TAPARTMFL]
2. VNPGRSLFL [human5, VNPGRSLFL]
3. QMPSRSLLF [human1, QMPSRSLLF]

Response given:
1: 0.024; 2: 0.177; 3: 0.035
